Reference source: PubChem BioAssay (NCI)

Assay: NCI Yeast Anticancer Drug Screen. Data for the cln2 rad14 strain (AID 165);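 note: 0% = growth equal to vehicle treated cultures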
Conditions: S. cerevisiae cln2 rad14 strain, at 50.0 µM, stronger effect = higher value
The panel holds about 79,000 compounds, 15% with a hit somewhere; the sample as a whole holds those more often.
READOUT_NAME: growth inhibition (%)
Give bare numbers, in %.

{"columns": ["COMPOUND", "QUANTITY_UNIT", "growth inhibition"],
 "data": [
  ["C(=N\\NC1=NCCN1)/c1ccccc1", "%", -36.8],
  ["CC1OC(OC2C(CO)OC(O[C@H]3CC[C@@]4(C)C(=CC[C@H]5[C@@H]6C[C@@H]7O[C@]8(CC[C@@H](C)CN8)[C@@H](C)[C@@H]7[C@@]6(C)CC[C@@H]54)C3)C(O)C2O)C(O)C(O)C1O (stereo not given in full)", "%", 15.2],
  ["CCCCCCCC(=O)CC(C)C", "%", -2.5],
  ["CC(C)(C)OC(=O)N1CCc2c(n(C/C=C/c3ccccc3)[nH]c2=O)C1", "%", -0.3]
]}

# input for lookup
Q: # query: growth inhibition of entry COCCOC(=O)C(O)c1ccccc1 (stereo not given)
Ans: 9

###

Assay: NCI Yeast Anticancer Drug Screen. Data for the cln2 rad14 strain (AID 165);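 note: 0% = growth equal to vehicle treated cultures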
Conditions: S. cerevisiae cln2 rad14 strain, at 50.0 µM
This is part of a sample that, as a whole, favours compounds with a hit. Of some 79,000 tested, about 15% had one in any assay. Activity calls are given as the source filed them. Rule as the data show it: active = growth inhibition above about 70%; inactive = the rest.
In this exercise, the only acceptable responses are True = active, False = inactive

{"columns": ["MOLECULE", "CAT"],
 "data": [
  ["Cc1ccc(NC(=O)OCC2CC3C=CC2C3)cc1 (stereo not drawn)", "True"]
]}

Q: Any idea what this test logged for CN/N=C(\C(=O)Nc1ccc([N+](=O)[O-])cc1[N+](=O)[O-])C1NC(=O)NC1=O (stereo not drawn) ?
Ans: False

Q: Any idea what this test logged for "C=C(C)COc1ccc(Nc2ccccc2)cc1" ?
Ans: False

Q: Any idea what this test logged for C[C@]12CCC(=O)C=C1CC[C@@H]1C2CC[C@]2(C)Nc3[nH]ncc3CC12 (stereo partly drawn) ?
Ans: False

Q: Any idea what this test logged for "O=C(Nc1ccc(Cl)cc1)Nc1nnc(-c2cc([N+](=O)[O-])cc([N+](=O)[O-])c2)o1" ?
Ans: False

Q: Any idea what this test logged for "Nc1ccc(C(=O)Nc2ccc3c(ccc4ccccc43)c2)cc1" ?
Ans: False

Q: Any idea what this test logged for "COC(=O)C1(Cc2ccc3c(c2)CCC3)Cc2ccccc2C1" ?
Ans: False

Q: Any idea what this test logged for "COc1ccccc1NC(=O)C1=C(C)NC(C)=C(C(=O)Nc2ccccc2OC)C1c1cccc2ccccc12" ?
Ans: False

Q: Any idea what this test logged for COC(=O)c1c2c(cc3c1CC1(Cc4cc5c(cc4C1=O)CCC5)C3)CCC2 (stereo not drawn) ?
Ans: False

Q: Any idea what this test logged for "O=C(O)c1nn(-c2ccccc2)c2c1CSc1ccccc1-2" ?
Ans: False

Q: Any idea what this test logged for "O=C1CC2(CC(=O)N1CCc1c[nH]c3ccccc13)OCCO2" ?
Ans: False

Q: Any idea what this test logged for "C/C(CC(=O)Nc1ccc(NC(=O)C/C(C)=N\NC(N)=O)cc1)=N/NC(N)=O" ?
Ans: False

Q: Any idea what this test logged for "CCOC(=O)c1c[nH]c2c(=O)n(C)c(=O)[nH]c12" ?
Ans: False

Q: Any idea what this test logged for "CN(Cc1ccccc1)N=NCc1ccccc1" ?
Ans: False

Q: Any idea what this test logged for "O=C1c2cccc([N+](=O)[O-])c2C(=O)N1c1ncn[nH]1" ?
Ans: False

Q: Any idea what this test logged for "CCCCCCCOCC(=O)OC" ?
Ans: False

Q: Any idea what this test logged for COc1ccc2c(c1)C1(C)CCCC(C)C1=CC2=O (stereo not drawn) ?
Ans: False

Q: Any idea what this test logged for "S=c1nn[nH]n1C1CCCCC1" ?
Ans: False

Q: Any idea what this test logged for "N#Cc1ccc(/C=C/C(=O)c2ccccc2)cc1" ?
Ans: False

Q: Any idea what this test logged for "Cc1cc(N(CCC#N)CCC#N)ccc1/C(N=Nc1cccc(Cl)c1)=N/NC(=O)c1cc(Cl)ccc1O" ?
Ans: False

Q: Any idea what this test logged for CC1CCCNC1C (stereo not drawn) ?
Ans: False

Q: Any idea what this test logged for "Cc1c(Cl)c(C)c(Cc2c(C)c(Cl)c(C)c(Cl)c2O)c(O)c1Cl" ?
Ans: False

Q: Any idea what this test logged for "CN(C)c1ccc(/C=C(\C#N)c2cccc(Br)c2)cc1" ?
Ans: False
